Here the recorded cell viability is given for each entry.
Test system: WHIM30 (cells of a triple-negative basal-like breast cancer xenograft)
Assay: cell viability (% of vehicle); higher = less cytotoxic
Conditions: 10 µM; 72 h
Please reply with the number alone, leaving off any unit.

For orientation, consider the following solved cases.
{"columns": ["compound", "cell viability"],
 "data": [
  ["CCc1nc(N)nc(N)c1-c1ccc(Cl)cc1", 104],
  ["CC(=O)O.CC(=O)O.CCC(C)CC(C)CCCCCCCCC(=O)NC1CC(O)C(NCCN)NC(=O)C2C(O)CCN2C(=O)C(C(O)CCN)NC(=O)C(C(O)C(O)c2ccc(O)cc2)NC(=O)C2CC(O)CN2C(=O)C(C(C)O)NC1=O (stereo unspecified) [Caspofungin Acetate]", 119],
  ["Cc1ccc(-n2nc(C(C)(C)C)cc2NC(=O)Nc2ccc(OCCN3CCOCC3)c3ccccc23)cc1", 103],
  ["CC1(C)CCC(CN2CCN(c3ccc(C(=O)NS(=O)(=O)c4ccc(NCC5CCOCC5)c([N+](=O)[O-])c4)c(Oc4cnc5[nH]ccc5c4)c3)CC2)=C(c2ccc(Cl)cc2)C1", 99.4],
  ["CCCC(=O)OC1(C(=O)COC(C)=O)CCC2C3CC(F)C4=CC(=O)C=CC4(C)C3(F)C(O)CC21C (stereo unspecified) [Difluprednate]", 175]
]}

Next item in the queue.
Suppose we examine the compound C=C1C(=CC=C2CCCC3(C)C2CCC3C(C)CCCC(C)(C)O)CC(O)CC1O (stereo unspecified) ; what cell viability value has been reported?
137

###

Test system: WHIM2 (cells of a triple-negative basal-like breast cancer xenograft)
Experiment: cell viability (% of vehicle); higher = less cytotoxic
Details: 10 µM; 72 h
// NB: equality with 70 counts as not fulfilled; only cell viability strictly below is fulfilled

Use the examples below as a reference point.
{"columns": ["compound", "category.label"],
 "data": [
  ["CNCCCC12CCC(c3ccccc31)c1ccccc12.Cl [Maprotiline HCl]", "fulfilled"],
  ["CC(=O)OC1CC2CCC3C(CCC4(C)C3CC([N+]3(C)CCCCC3)C4OC(C)=O)C2(C)CC1N1CCCCC1.[Br-] (stereo unspecified) [Vecuronium Bromide]", "not fulfilled"],
  ["CCC(=C(c1ccccc1)c1ccc(OCCN(C)C)cc1)c1ccccc1.O=C(O)CC(O)(CC(=O)O)C(=O)O [Tamoxifen Citrate]", "fulfilled"],
  ["COc1cc2c(cc1Cc1cccc(Cl)c1F)c(=O)c(C(=O)O)cn2C(CO)C(C)C (stereo unspecified) [Elvitegravir (GS-9137)]", "not fulfilled"]
]}

A record lists CCCCCCCCCCCCCCCCOP(=O)([O-])OCC[N+](C)(C)C [Miltefosine] . Is its cell viability below 70?
fulfilled

###

Here, each record is paired with measured cell viability data.
Tested on: HCI09 (cells of a triple-negative luminal androgen receptor type breast cancer xenograft)
Experiment: cell viability (% of vehicle); higher = less cytotoxic
Conditions: 10 µM; 72 h
No unit in the answer, please; the number alone is enough.

{"columns": ["compound", "cell viability"],
 "data": [
  ["CN(Cc1cc(Br)cc(Br)c1N)C1CCCCC1.Cl [Bromhexine HCl]", 93],
  ["CNC(C)C1CCC(N)C(OC2C(N)CC(N)C(OC3OCC(C)(O)C(NC)C3O)C2O)O1.O=S(=O)(O)O (stereo not drawn) [Gentamycin Sulfate]", 100],
  ["O=C([O-])CCCc1ccccc1.[Na+] [Sodium Phenylbutyrate]", 101],
  ["COC(=O)N(C)c1c(N)nc(-c2nn(Cc3ccccc3F)c3ncccc23)nc1N", 104]
]}

Which measured cell viability belongs to CC(C)n1c(C=CC(O)CC(O)CC(=O)O)c(-c2ccc(F)cc2)c2ccccc21 (stereo not drawn) , tested on HCI09?
65.7

Lookup OC(Cn1cncn1)(Cn1cncn1)c1ccc(F)cc1F [Fluconazole hydrate]
99.4

Here is the next compound: Br.CN1CCCC1Cc1c[nH]c2ccc(CCS(=O)(=O)c3ccccc3)cc12 (stereo not drawn)
80.1

"CC(=O)c1cc2c(o1)C(=O)c1ccccc1C2=O" ?
29.1

###

System: HCI09
Assay: cell viability (% of vehicle); higher = less cytotoxic
Conditions: 10 µM; 72 h
test.readout: cell viability
Write the value as a bare number.

cell viability for Nc1ccc(S(=O)(=O)Nc2ccccn2)cc1 [Sulfapyridine] ?
101

Thanks! And [I-].[K+] [Potassium Iodide] ?
97

Repeat for the following compound: O=C(O)c1cccnc1 [Nicotinic Acid]
100

###

Listed below: cell viability values for each entry.
System: WHIM30
Assay: cell viability (% of vehicle); higher = less cytotoxic
Details: 10 µM; 72 h
Output: the number by itself.

Check out these entries, answers already filled in.
{"columns": ["compound", "cell viability"],
 "data": [
  ["CCS(=O)(=O)CCn1c([N+](=O)[O-])cnc1C", 163],
  ["COc1cccc2c1C(=O)c1c(O)c3c(c(O)c1C2=O)CC(O)(C(=O)CO)CC3OC1CC(N)C(O)C(C)O1.Cl (configuration not stated) [Doxorubicin (Adriamycin) HCl]", 77],
  ["CC1(C)O[C@@H]2C[C@H]3[C@@H]4CCC5=CC(=O)C=C[C@]5(C)[C@H]4[C@@H](O)C[C@]3(C)[C@]2(C(=O)CO)O1 [Desonide]", 127],
  ["COc1nc(C)nc(Cl)c1NC1=NCCN1", 118]
]}

Using the record for CCCCCCCCCCCC(CC1OC(=O)C1CCCCCC)OC(=O)C(CC(C)C)NC=O (configuration not stated) , report its cell viability.
123

Same question, CCCCOc1ccc(C(=O)CCN2CCCCC2)cc1.Cl [Dyclonine HCl] this time
129

Let us now turn to "O=C(O)c1cc(=O)[nH]c(=O)[nH]1"
76.6

###

Measured cell viability, listed per entry.
Test system: HCI11 (cells of an ER-positive luminal breast cancer xenograft)
Test: cell viability (% of vehicle); higher = less cytotoxic
Settings: 10 µM; 72 h
Write no unit; give the number alone.

{"columns": ["compound", "test.readout", "recorded.value"],
 "data": [
  ["CO/C(O)=N/[C@H](C(=O)N1CC2(CC2)C[C@H]1c1ncc(-c2ccc3c(c2)C(F)(F)c2cc(-c4ccc5nc([C@@H]6[C@H]7CC[C@H](C7)N6C(=O)[C@@H](/N=C(\\O)OC)C(C)C)[nH]c5c4)ccc2-3)[nH]1)C(C)C", "cell viability", 80.6],
  ["O=C(C=CC=Cc1ccc2c(c1)OCO2)N1CCCCC1", "cell viability", 134],
  ["CCn1cc(C(=O)O)c(=O)c2ccc(C)nc21", "cell viability", 92.1],
  ["Nc1ccc(S(=O)(=O)Nc2ncccn2)cc1", "cell viability", 103],
  ["CN1CCCC1c1cccnc1.O=C(O)C(O)C(O)C(=O)O.O=C(O)C(O)C(O)C(=O)O (configuration not stated) [Nicotine Difartrate]", "cell viability", 114]
]}

Give the measured cell viability of O=CC(O)C(O)C(O)CO (configuration not stated) .
90.9

Please give the result for CN1CCC(OC(c2ccccc2)c2ccccc2)CC1.Cl [Diphenylpyraline HCl] too.
106

###

In this section, each of the compounds is paired with its reported cell viability.
Test system: HCI01 (cells of a triple-negative basal-like breast cancer xenograft);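 further: cells dissociated from PDX tumors propagated in female NSG mouse mammary fat pads, vehicle control 0.1% DMSO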
Assay: cell viability (% of vehicle); higher = less cytotoxic
Details: 1 µM; 72 h
Reply with the value as a number alone.

Request the reported cell viability associated with "CO[C@H]1C[C@@H]2CC[C@@H](C)[C@@](O)(O2)C(=O)C(=O)N2CCCC[C@H]2C(=O)O[C@H]([C@H](C)C[C@@H]2CC[C@@H](OC(=O)C(C)(CO)CO)[C@H](OC)C2)CC(=O)[C@H](C)/C=C(\C)[C@@H](O)[C@@H](OC)C(=O)[C@H](C)C[C@H](C)/C=C/C=C/C=C/1C"
76.2

For Nc1ncn(C2OC(CO)C(O)C2O)c(=O)n1 (stereo unspecified) then?
91.5

Also CC(Oc1cc(-c2cnn(C3CCNCC3)c2)cnc1N)c1c(Cl)ccc(F)c1Cl [(R)-Crizotinib] ?
154

What about COC(=O)C12CCC(C)(C)CC1C1C(=O)C=C3C4(C)C=C(C#N)C(=O)C(C)(C)C4CCC3(C)C1(C)CC2 (stereo unspecified) ?
145

Next up: COc1cc2nccc(Oc3ccc(NC(=O)C4(C(=O)Nc5ccc(F)cc5)CC4)cc3)c2cc1OC.O=C(O)CC(O)C(=O)O [Cabozantinib malate (XL184)]
92.9

Now give it for CCN(CC)CCCC(C)Nc1ccnc2cc(Cl)ccc12.O=P(O)(O)O.O=P(O)(O)O (stereo unspecified) [Chloroquine diphosphate] too.
88.7

###

Tested on: HCI03 (cells of an ER-positive luminal breast cancer xenograft)
Assay: cell viability (% of vehicle); higher = less cytotoxic
Conditions: 10 µM; 72 h
test.readout: cell viability
Reply with just the number.

Study these solved cases before continuing.
{"columns": ["molecule", "test.readout", "recorded.value"],
 "data": [
  ["COCCCOc1cc(CC(CC(N)C(O)CC(C(=O)NCC(C)(C)C(N)=O)C(C)C)C(C)C)ccc1OC.COCCCOc1cc(CC(CC(N)C(O)CC(C(=O)NCC(C)(C)C(N)=O)C(C)C)C(C)C)ccc1OC.O=C(O)C=CC(=O)O (centres undefined) [Aliskiren Hemifumarate]", "cell viability", 157],
  ["OC(Cn1cncn1)(Cn1cncn1)c1ccc(F)cc1F", "cell viability", 153],
  ["COc1ccc2c(c1OC)C(=O)OC2C1c2c(cc3c(c2OC)OCO3)CCN1C.Cl (centres undefined) [Noscapine HCl]", "cell viability", 114]
]}

# input molecule: CC(=O)OC1(C(C)=O)CCC2C3C=C(Cl)C4=CC(=O)C5CC5C4(C)C3CCC21C (centres undefined) [Cyproterone Acetate] ; wanted: its cell viability
112
